Values compiled from the supplement of paper PMC10567573.

B1: NR2F2 (parent)
chain: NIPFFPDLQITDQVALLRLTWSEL

variants of: B1; test: protein stability index of a GFP-peptide fusion (GPS, HEK-293T) (PSI 1-6); higher = more stable; conditions: c terminus: a fixed tail appended;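 also: lentivirally expressed fusions sorted by FACS into six bins by GFP to DsRed ratio, PSI derived from sequencing read proportions per bin multiplied by bin number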
observed.property: protein stability index
I'd appreciate a reply containing only the number, no unit.

What measured protein stability index goes with L17C ?
1.79

What do we get for F4C ?
2.63

Repeat for the following variant: W21M
2

Moving on to T11M
3.1

Record: A15C
2.07

Could you do the same for V14P , please?
1.87

Then this variant: F4L
3.09

Same question, T20N this time
1.56

Could you do the same for L8G , please?
1.47

// repeat for Q13A and report
2.75

Next record, please: S22N
2.28

Entry to check: F4Y
2.56

Then this variant: L17M
2.16

What do you have for L24A ?
1.64

Here is the next variant: L8Q
2.22

Now try F4S .
2.04

Same question for I10C please.
2.15

What about F5E ?
1.67

Same read-out for L17H ?
1.54

Same again, this time with I10Q
2.31

Proceed to Q13F
1.69

Try the variant S22K
1.68

Query R18N next
2.45

Now give it for L19E too.
2.04

Next entry: A15R
2.08

Repeat with T11C
2.25

And what about the variant L17G ?
1.92

Then this variant: D12S
3.57
